test: Pharmacokinetics in mice after oral administration, plasma and brain by LC/MS/MS; conditions: mouse brain, 30 mg/kg CuXTSM API oral
Mark true (1) for reported Brain AUC0-inf of 20000 ng·min/g or greater; mark false (0) for anything smaller.

Record excerpt, results attached:
CNC1=NN=C(C)C(C)=NN=C(NC)[S][Cu][S]1.O=C(O)C(O)C(O)C(O)C(O)CO.O=C(O)C(O)C(O)C(O)C(O)CO: true (1)
CNC1=NN=C(C)C(C)=NN=C(NC)[S][Cu][S]1.O=C1NS(=O)(=O)c2ccccc21.O=C1NS(=O)(=O)c2ccccc21: true (1)
CNC1=NN=CC(C)=NN=C(NC)[S][Cu][S]1.O=C1NS(=O)(=O)c2ccccc21.O=C1NS(=O)(=O)c2ccccc21: true (1)

Input line: For this molecule, is measured Brain AUC0-inf 20000 ng·min/g or higher? `CNC1=NN=C(C)C(C)=NN=C(NC)[S][Cu][S]1.O=C(O)CC(O)(CC(=O)O)C(=O)O`
Output line: false (0)

Input line: For this molecule, is measured Brain AUC0-inf 20000 ng·min/g or higher? CNC1=NN=C(C)C(C)=NN=C(NC)[S][Cu][S]1 [CuATSM, reference compound]
Output line: false (0)

Ref: patent US11266686B2
